# test_system: T1, human plasma kallikrein (human, UniProt P03952 20-390; P03952 391-638)
# T1 construct: also called pKal; human pKal
# T1 sequence (P03952 20-390, chain 1 of 2): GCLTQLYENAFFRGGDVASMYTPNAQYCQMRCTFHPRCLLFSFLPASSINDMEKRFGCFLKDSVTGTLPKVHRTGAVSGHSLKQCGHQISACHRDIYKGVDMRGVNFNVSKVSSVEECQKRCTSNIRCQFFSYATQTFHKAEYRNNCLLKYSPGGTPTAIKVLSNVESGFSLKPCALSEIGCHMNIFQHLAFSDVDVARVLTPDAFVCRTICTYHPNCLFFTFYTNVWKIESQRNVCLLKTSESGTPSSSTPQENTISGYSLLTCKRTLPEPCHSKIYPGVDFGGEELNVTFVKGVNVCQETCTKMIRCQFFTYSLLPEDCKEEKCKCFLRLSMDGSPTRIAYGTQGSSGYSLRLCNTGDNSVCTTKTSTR
# T1 sequence (P03952 391-638, chain 2 of 2): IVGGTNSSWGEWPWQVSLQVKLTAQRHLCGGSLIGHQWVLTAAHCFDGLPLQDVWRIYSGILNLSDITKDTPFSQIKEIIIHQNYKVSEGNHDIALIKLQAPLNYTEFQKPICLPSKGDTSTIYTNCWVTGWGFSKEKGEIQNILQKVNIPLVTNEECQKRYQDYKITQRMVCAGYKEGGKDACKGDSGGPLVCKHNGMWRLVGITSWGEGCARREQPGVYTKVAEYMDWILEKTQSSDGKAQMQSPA
# test: apparent inhibition constant (Ki,app) against human pKal, enzyme inhibition
measurement_kind: pKi
FYI, pKi means -log10 of a concentration in mol per litre.

Known results for binders:
Task item: Which value of pKi has been reported for M6-D09 (Fab, V domains shown, Printed HC runs from VH into the start of CH1; also called M06-D09; 559A-M06-D09) VH: EVQLLESGGGLVQPGGSLRLSCAASGFTFSFYYMVWVRQAPGKGLEWVSVIYPSGGITVYADSVKGRFTISRDNSKNTLYLQMNSLRAEDTAVYYCARDKWAVMPPYYYYAMDVWGQGTTVTVSS VL: DIQMTQSPSSLSASVGDRVTITCRASQSIRNYLNWYQQKPGKAPNLLIYAASTLQSGVPARFSGSGSGTDFTLTISSLQPEDFATYYCQQLSGYPHTFGQGTKLEIK in the records?
Reply: 8.23

Task item: Data request, read-out pKi, for M161-C11 (Fab, V domains shown, Printed HC runs from VH into the start of CH1) VH: EVQLLESGGGLVQPGGSLRLSCAASGFTFSDYAMKWVRQAPGKGLEWVSSISSSGGVTQYADSVKGRFTISRDNSKNTLYLQMNSLRAEDTAVYYCAREEDYSSSWYSRRFDYYYGMDVWGQGTTVTVSS VL: QSALTQPPSVSVSPGQTASITCSGDKLGDKYVSWYQQRPGQSPVLVIYQDTKRPSGIPERFSGSNSGNTATLTISGTQAVDEADYYCQAWDSSTYVFGGGTKVTVL
Reply: 9.52

Task item: What does the record list as pKi for X81-B01 (antibody, V domains shown, No variable domains are printed under the name X81-B01; also called germlined, codon optimized IgG version of X63-G06) VH: EVQLLESGGGLVQPGGSLRLSCAASGFTFSHYLMTWVRQAPGKGLEWVSYISPSGGHTIYADSVKGRFTISRDNSKNTLYLQMNSLRAEDTAVYYCARVARGIAARSRTSYFDYWGQGTLVTVSS VL: EIVLTQSPGTLSLSPGERATLSCRTSQFVNSNYLAWYQQKPGQAPRLLIYGASSRATGIPDRFSGSGSGTDFTLTISRLEPEDFAVYYCQQSSRTPWTFGQGTKVEIK ?
Reply: 9.70

Okay, next one:
Task item: Using the record for M160-G12 (Fab, V domains shown, Printed HC runs from VH into the start of CH1; also called R84-D02 (as IgG)) VH: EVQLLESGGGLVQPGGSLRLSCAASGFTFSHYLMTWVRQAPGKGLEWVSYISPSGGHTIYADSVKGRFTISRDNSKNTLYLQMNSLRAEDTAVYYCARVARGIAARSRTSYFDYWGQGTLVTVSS VL: DIQMTQSPSFLSASVGDRVTITCRASQGISSYLAWYQQKPGKAPKLLIYAASTLQSGVPSRFSGSGSGTEFTLTISSLQPEDFATYYCQQLNSYPLTFGGGTKVEIK , report its pKi.
Reply: 7.77
